Can you tell me pIC50 for the items I'm about to list?
# target desc: Acetylcholinesterase (Torpedo californica, UniProt P04058)
# Sequence (P04058 whole entry): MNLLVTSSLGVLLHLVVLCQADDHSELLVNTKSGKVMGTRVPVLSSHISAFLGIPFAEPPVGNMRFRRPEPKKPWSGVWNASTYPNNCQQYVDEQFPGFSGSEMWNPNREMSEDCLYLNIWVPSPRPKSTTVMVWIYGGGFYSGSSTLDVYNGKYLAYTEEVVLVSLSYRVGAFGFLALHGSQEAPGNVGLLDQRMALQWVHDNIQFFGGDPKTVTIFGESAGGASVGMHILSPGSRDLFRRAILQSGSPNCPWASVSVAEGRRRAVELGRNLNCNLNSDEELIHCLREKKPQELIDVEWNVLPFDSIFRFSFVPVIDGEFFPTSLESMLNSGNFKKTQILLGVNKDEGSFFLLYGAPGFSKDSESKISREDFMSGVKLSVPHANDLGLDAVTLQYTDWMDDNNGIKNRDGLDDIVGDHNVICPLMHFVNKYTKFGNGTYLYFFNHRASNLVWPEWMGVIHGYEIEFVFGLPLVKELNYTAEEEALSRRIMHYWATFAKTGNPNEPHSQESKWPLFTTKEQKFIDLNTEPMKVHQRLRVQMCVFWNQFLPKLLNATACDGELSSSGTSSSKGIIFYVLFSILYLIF
# assay name: Inhibition of Torpedo californica […] AChE using acetylthiocholine/DTNB as substrate preincubated for 10 mins followed by substrate addition measured every 30 secs for 30 mins by Ellmans method
# Set-up: species or system Tetronarce californica
pIC50: −log10 of the molar value.

# annotated cases, reported pIC50 shown
• Clc1c2c(nc3ccccc13)CCCC2 = < 4.60
• Cc1cccc(Nc2ccccc2C(=O)O)c1C = < 2.90

Could you tell me which pIC50 is on file for `Clc1ccc2c(Cl)c3c(nc2c1)CCCC3` ? < 4.30
